Consider the following compounds; for each one, report its half-life.
assay_explanation: Pharmacokinetic analysis of compounds in rats
Type: in vivo, SD rats
measurement_setup: SD, rat, in vivo, iv, 1 mg/kg
Answers are plain numbers, in min.

Worked cases, half-life given:
>>> number("C[C@H](c1cc(F)c2c(c1NC(=O)N[S@@](=N)(=O)c1cc(C(C)(C)O)co1)CCC2)C1CC1 (single isomer, unassigned)")
55.8
>>> number("C[C@@H](c1cc(F)c2c(c1NC(=O)N[S@@](=N)(=O)c1cc(C(C)(C)O)co1)CCC2)C1CC1 (single isomer, unassigned)")
47.4

So what's the measured half-life for this one? CC(C)(O)c1coc(S(=O)(=O)NC(=O)Nc2c3c(cc4c2CCC4)CCC3)c1 [Control 3, reference compound] 27.6

----------
Tested on: Human monocyte cell line THP-1
assay_explanation: Detection of THP-1 cell pyroptosis (Caspase-Glo 1 Inflammasome Assay)
Assay type: cell-based
measurement_setup: Homo sapiens, THP-1, THP-1 pyroptosis, 20 nM PMA 48 h, 1 μg/mL LPS, compound 3 h
pIC50: −log10 of the molar value.
Consider the following compounds; for each one, report its pIC50.

Worked cases, pIC50 given:
>>> result("C[C@@H](c1ccc2c(c1NC(=O)NS(=O)(=O)c1cnc(C(C)(C)O)s1)CCC2)C1CC1")
"≥ 7.00"
>>> result("CC(C)(O)c1csc(S(=N)(=O)NC(=O)Nc2c(CC3CCC3)ccc3c2CCC3)c1 (stereo not shown) [Compound 83A]")
"≥ 7.00"
>>> result("O=C(Nc1c(CC2CCC2)ccc2c1CCC2)NS(=O)(=O)c1cc(C2(O)CC2)co1")
"5.30 to 6.00"
>>> result("CC(c1ccc2c(c1NC(=O)NS(=O)(=O)c1cc(C(C)(C)O)co1)CCC2)C1CCC1 (stereo not shown)")
"6.30 to 7.00"
>>> result("C[C@H](c1ccc2c(c1NC(=O)NS(=O)(=O)c1sc(C(C)(C)O)cc1C#N)CCC2)C1CC1")
"6.30 to 7.00"

Batch request: pIC50 per item, same order as input.
1. C[C@H](c1ccc2c(c1NC(=O)NS(=O)(=O)c1cc(C(C)(C)O)co1)CC2)C1CC1
2. C[C@H](c1ccc2c(c1NC(=O)NS(=O)(=O)c1cc(C(C)(C)O)co1)CCC2)C1CCC1

5.30 to 6.00
5.30 to 6.00

----------
assay_explanation: Pharmacokinetic analysis of compounds in rats
Assay type: in vivo, SD rats
measurement_setup: SD rats, iv (tail vein), 1 mg/kg, plasma
Method: Healthy adult SD rats weighing 180-220 g were fasted (free access to water) overnight and divided into tail vein administration group and intragastric administration group. […] The concentration of parent drug in the plasma was determined by LC-MS/MS.
measure_name: t1/2 (h)
Numbers only, in h.

Worked cases, t1/2 given:
>>> number("CC(c1ccc2c(c1NC(=O)NS(=N)(=O)c1cc(C(C)(C)O)co1)CC2)C1CC1 (racemic)")
3.9
>>> number("C[C@@H](c1ccc2c(c1NC(=O)NS(=N)(=O)c1cc(C(C)(C)O)co1)CCC2)C1CC1 (mixture of isomers) [Compound 6-2]")
1.5
>>> number("C[C@@H](c1ccc2c(c1NC(=O)NS(=N)(=O)c1cc(C(C)(C)O)co1)CCC2)C1CC1 (mixture of isomers) [Compound 6-1]")
1.6
>>> number("CC(c1ccc2c(c1NC(=O)NS(=N)(=O)c1cc(C(C)(C)O)co1)CCC2)C1CC1 (racemic) [Compound 8-2]")
2.0
>>> number("CC(c1ccc2c(c1NC(=O)NS(=N)(=O)c1cc(C(C)(C)O)co1)CCC2)C1CC1 (racemic) [Compound 8-1]")
0.74

Next:
So what's the measured t1/2 for this one? C[C@@H](c1ccc2c(c1NC(=O)NS(=N)(=O)c1cc(C(C)(C)O)co1)CC2)C1CC1 (mixture of isomers) 2.2
